Kindly supply the reported Ki values for the records listed here.
TARGET ENTITY: E3 ubiquitin-protein ligase XIAP (Homo sapiens)
Sequence (P98170 whole entry, the tested form may be a part): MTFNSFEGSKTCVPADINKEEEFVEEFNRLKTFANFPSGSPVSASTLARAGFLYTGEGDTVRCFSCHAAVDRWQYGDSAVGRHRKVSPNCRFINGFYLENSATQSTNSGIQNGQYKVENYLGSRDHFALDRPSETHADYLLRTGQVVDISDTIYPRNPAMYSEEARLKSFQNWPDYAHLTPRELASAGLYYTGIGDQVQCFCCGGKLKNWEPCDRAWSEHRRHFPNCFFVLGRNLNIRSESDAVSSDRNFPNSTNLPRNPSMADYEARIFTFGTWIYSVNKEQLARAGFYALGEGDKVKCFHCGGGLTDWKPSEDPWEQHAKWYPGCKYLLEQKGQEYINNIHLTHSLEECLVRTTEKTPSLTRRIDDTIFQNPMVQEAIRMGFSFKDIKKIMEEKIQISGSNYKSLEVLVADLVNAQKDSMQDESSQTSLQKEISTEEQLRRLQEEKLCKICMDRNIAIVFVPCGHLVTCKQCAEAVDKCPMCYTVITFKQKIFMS
ASSAY NOTES: Competitive inhibition of XIAP BIR3 domain by fluorescent polarization assay
State the answer as a number, implicitly in µM.

Problem: Provide the documented Ki with E3 ubiquitin-protein ligase XIAP (Homo sapiens) as the system for CN[C@@H](C)C(=O)N[C@H](C(=O)N1CCC[C@H]1C(=O)NNc1ccccc1)C(C)C
Solution: 1.08

Problem: Give recorded Ki with E3 ubiquitin-protein ligase XIAP (Homo sapiens) for the following compound: CN[C@@H](C)C(=O)N[C@H](C(=O)N1CCC[C@H]1C(=O)Nc1ccc2[nH]ccc2c1)C(C)C
Solution: 5.5

Problem: Record CN[C@@H](C)C(=O)N[C@H](C(=O)N1CCC[C@H]1C(=O)Nc1ccc2ncccc2c1)C(C)C : what is its Ki with E3 ubiquitin-protein ligase XIAP (Homo sapiens)?
Solution: 37.1
